# viability, T/C annotations
- Tested on: 616215-338-R-J1-PDC tumor spheroids, viability;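 note: spheroids exposed to agents for 7 days before readout; percent viability relative to DMSO vehicle control wells taken as 100%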
- experimental_protocol: Anticancer human tumor 616215-338-R-J1-PDC patient-derived colon adenocarcinoma cell line growth inhibition [GQUAD]
- measurement_setup: second compound 0.0316 µM; first compound 1 µM; hits give low values; spheroids with HUVEC and MSC
- From the text: DNA G-quadruplex Stabilizer Agents in Combinations in Complex Spheroids A high-throughput screen of multi-cell type tumor spheroids was designed to identify active combinations of DNA G-quadruplex stabilizer agents and targeted small molecules. […] Compounds. […] If the clinical Cmax for an agent had not been determined, the highest concentration tested was 10 microM. […]
measurement_type: viability, T/C (%)

>>> test_value("C=CC(=O)N1CCN(c2nc(=O)n(-c3c(C)ccnc3C(C)C)c3nc(-c4c(O)cccc4F)c(F)cc23)C(C)C1 (stereo not given) + Cc1cnc(CNC(=O)c2c(=O)c3ccc(N4CCCN(C)CC4)nc3n3c2sc2ccccc23)cn1")
95.9
>>> test_value("COc1ccc([C@@H](O)c2cc(-c3ncnc4cc(N5CCOCC5)ccc34)c(F)cc2Cl)nn1 + CN(C)c1ccc(Nc2c3ccc(NC(=O)CCN4CCCC4)cc3nc3cc(NC(=O)CCN4CCCC4)ccc23)cc1")
98.1
>>> test_value("COc1cc(C2c3cc4c(cc3C(OC3OC5COC(C)OC5C(O)C3O)C3COC(=O)C23)OCO4)cc(OC)c1O (stereo not given) + CN(C)c1ccc(Nc2c3ccc(NC(=O)CCN4CCCC4)cc3nc3cc(NC(=O)CCN4CCCC4)ccc23)cc1")
51.9
>>> test_value("O=c1[nH]cc(F)c(=O)[nH]1 + Cc1[nH]c2ccc(F)cc2c1-c1nc2c3cccnc3c3ncccc3c2[nH]1")
43
>>> test_value("O=C(NO)c1cnc(N2CCN(S(=O)(=O)c3ccc4ccccc4c3)CC2)nc1 + Cc1cnc(CNC(=O)c2c(=O)c3ccc(N4CCCN(C)CC4)nc3n3c2sc2ccccc23)cn1")
5.15
